- target.or.test.system: Dual specificity tyrosine-phosphorylation-regulated kinase 1A (Homo sapiens)
- assay.procedure: Inhibition of recombinant DYRK1A (unknown origin) using Ser/Thr 18 peptide as substrate incubated for 1 hr in presence of ATP by FRET assay
observed.property: EC50 (nM)

Read the entry CCC(=O)Nc1cncc(-c2ccc3[nH]nc(-c4cc5c(-c6cccc(F)c6)cncc5[nH]4)c3c2)c1 and write its reported EC50.
27

Report EC50 for CC(C)Nc1cncc(-c2cc3c(-c4cc5c(-c6cccnc6)ccnc5[nH]4)n[nH]c3cn2)c1
19

Tell me EC50 reported for Cc1cn(-c2nccc3[nH]c(-c4n[nH]c5ccc(-c6cncc(NC(=O)CC(C)C)c6)cc45)nc23)cn1
9

[I] CC(C)(C)CC(=O)Nc1cncc(-c2ccc3[nH]nc(-c4nc5ccncc5[nH]4)c3c2)c1
[II] c1cnc2[nH]c(-c3n[nH]c4ccc(-c5cncc(OCCN6CCCC6)c5)cc34)cc2c1
[III] COc1cncc(-c2cc3c(-c4nc5c(-c6cccc(F)c6)cncc5[nH]4)n[nH]c3cn2)c1
[IV] Nc1cncc(-c2cnc3[nH]nc(-c4cc5c(-c6ccccc6F)ccnc5[nH]4)c3c2)c1
[V] Nc1cncc(-c2ccc3[nH]nc(-c4nc5c(-c6ccccc6F)nccc5[nH]4)c3c2)c1
Ordering: ascending EC50. // format: requested-order list of labels
I, V, II, III, IV

----------
- assay.procedure: Effect on Wnt signaling pathway in human SW480 cells harbouring TCF/LEF luciferase reporter gene and SP5-Luc reporter gene incubated for 36 to 48 hrs by luminescence assay
- Type: cell-based
pEC50: −log10 of the molar value.
observed.property: pEC50

# example entries with known answers
// Input: CN1CCC(n2cc(NC(=O)c3n[nH]c4ccc(-c5cnn(C)c5)cc34)cn2)CC1 . Output its pEC50 only.
7.10

Give the reported pEC50 for this molecule. c1cncc(-c2cc3c(-c4nc5ccccc5[nH]4)n[nH]c3cn2)c1
7.70

Could you please provide reported pEC50 for Fc1cccc(-c2cncc3[nH]c(-c4n[nH]cc4C#Cc4cncc(OC5CCNCC5)c4)nc23)c1 ? Thanks!
5.33

Specify reported pEC50 for the molecule shown: O=C(Cc1ccccc1)Nc1cncc(-c2ccc3[nH]nc(-c4cc5cnccc5[nH]4)c3c2)c1
5.76

Tell me measured pEC50 for CN1CC=C(c2cc(C(=O)Nc3cc4cc(-c5cncc(NC(C)(C)C)n5)cnc4cn3)ccn2)CC1 please.
6.45

Provide only the value of recorded pEC50 for FC1(F)CCN(Cc2cncc(-c3cc4c(-c5cc6cccnc6[nH]5)n[nH]c4cn3)c2)C1
5.87

Give pEC50 for CC(C)Nc1cncc(-c2cnc3[nH]nc(-c4nc5c(-c6cc(F)cc(NCCN(C)C)c6)nccc5[nH]4)c3c2)c1
6.81

Give the reported value of pEC50 for this record: CS(=O)(=O)c1ccc(NC(=O)c2n[nH]c3ccc(-c4cncc(CN5CCCCC5)c4)cc23)cn1
7.57

[1] CCNCc1cncc(-c2cnc3[nH]nc(-c4nc5c(-c6cccc(F)c6)cccc5[nH]4)c3c2)c1
[2] O=C(Nc1cncc(-c2ccc3[nH]nc(-c4nc5c(-c6ccncc6)ccnc5[nH]4)c3n2)c1)C1CCCCC1
[3] CN1CCN(c2cc(C(=O)Nc3cc4nc(-c5cnn(C)c5)ccc4cn3)ccn2)CC1
[4] CC(C)C(=O)Nc1cncc(-c2cc3c(-c4cc5c(-c6cccnc6)cccc5[nH]4)n[nH]c3cn2)c1
Hey, quick one: sort these by pEC50, largest value first please. Your task in answering is to list the labels in the requested order.
1, 3, 4, 2

[P] Nc1cncc(-c2ccc3[nH]nc(-c4nc5c(-c6ccccc6F)cccc5[nH]4)c3n2)c1
[Q] CCCC(=O)Nc1cncc(-c2ccc3[nH]nc(-c4nc5c(-c6ccsc6)ccnc5[nH]4)c3c2)c1
Higher pEC50 between P and Q ? Answer by stating the label of the chosen item.
Q
(Q: 8.11, P: 5.97)

[A] CC(C)Nc1cncc(-c2ccc3[nH]nc(-c4nc5c(-c6cc(F)cc(NCCN(C)C)c6)cncc5[nH]4)c3n2)c1
[B] CN(C)CCOc1cncc(-c2cc3c(-c4cc5c(-c6ccc(F)cc6)nccc5[nH]4)n[nH]c3cn2)c1
Which value of pEC50 is numerically greater: that of A or that of B ? I would appreciate it if you answered with the label of your choice.
A

[I] CC(C)Oc1ccc(NC(=O)c2n[nH]c3ccc(-c4cncc(CN5CC6CC(C5)O6)c4)cc23)cn1
[II] Fc1cccc(-c2ccnc3[nH]c(-c4n[nH]c5ccc(-c6cncc(CN7CCC(F)(F)C7)c6)cc45)nc23)c1
Hi there, can you help? I need to know whether I or II has lower measured pEC50. Answer by quoting the chosen item's label.
I
(I: 7.21, II: 7.72)
